Assign Kd to each entry below.
- subjectOfTest: T1, cynomolgus monkey serum albumin (cynomolgus monkey)
- T1 construct: also called cyno albumin
- testName: BLI Octet RED96, albumin on AR2G sensors (as in Example 4)
Answers are plain numbers, in nM.

{"binder": "SA1_S30K VHH (VHH, Made in E. coli WK6 periplasm; also called SA1_S3OK; SA1_S30K mutant variant) VHH: QVQLQESGGGLVQAGGSLRLSCAASGRNIKEYVMGWFRQAPGKEREFVAAISWSAGNIYYADSVKGRFTISRDNAKNTVHLQMNTLRPEDTAVYYCAAGRYSAWYVAAYEYDYWGQGTQVTVSS", "observedMeasurement": 0.57}

Q) What does the record list as Kd for SA1_S30K humanized variant 4 VHH (VHH, also called h4) VHH: EVQLQESGGGLVQPGGSLRLSCAASGRNIKEYVMGWFRQAPGKEREFVAAISWSAGNIYYADSVKGRFTISRDNSKNTVYLQMNSLRPEDTAVYYCAAGRYSAWYVAAYEYDYWGQGTLVTVSS ?
A) 0.32
